system: 422866-222-R5-J1-PDC spheroids with HUVEC/MSC, viability; test: Anticancer human tumor 422866-222-R5-J1-PDC patient-derived pancreatic adenocarcinoma cell line growth inhibition [GQUAD]; settings: second compound 0.316 µM; first compound 1 µM; stronger effect = lower value
Rule for this label: 1 (yes) means viability, T/C is less than 80%; 0 (no) means viability, T/C is at least 80%.

Below, 2 compounds whose answers are already recorded.
O=C(c1cc(Cc2n[nH]c(=O)c3ccccc23)ccc1F)N1CCN(C(=O)C2CC2)CC1 + Cc1cnc(CNC(=O)c2c(=O)c3ccc(N4CCCN(C)CC4)nc3n3c2sc2ccccc23)cn1	0 (no)
CC1COCCN1c1cc(-c2ccnn2C)c2ccnc(-c3ccn[nH]3)c2n1 (stereo unspecified) + CN(C)c1ccc(Nc2c3ccc(NC(=O)CCN4CCCC4)cc3nc3cc(NC(=O)CCN4CCCC4)ccc23)cc1	1 (yes)

Determine if CC1COCCN1c1cc(C2(S(C)(=N)=O)CC2)nc(-c2ccnc3[nH]ccc23)n1 (stereo unspecified) + Cc1[nH]c2ccc(F)cc2c1-c1nc2c3cccnc3c3ncccc3c2[nH]1 shows viability, T/C strictly lower than 80%.
1 (yes)

====

tested on: 422866-222-R5-J1-PDC spheroids with HUVEC/MSC, viability; assay: Anticancer human tumor 422866-222-R5-J1-PDC cell line growth inhibition [GQUAD]; conditions: second compound 0.0316 µM; first compound 3.16 µM; stronger effect = lower value;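 note: spheroids exposed to compounds for seven days before reading; percent viability relative to DMSO vehicle control taken as 100%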
Answer each item with its documented viability, T/C.

Solved cases below.
CC1COCCN1c1cc(C2(O)CC3CCC(C2)O3)c2cnn(-c3ccn[nH]3)c2n1 (stereo not drawn) + Cc1[nH]c2ccc(F)cc2c1-c1nc2c3cccnc3c3ncccc3c2[nH]1	87.5%
CC1COCCN1c1cc(C2(S(C)(=N)=O)CC2)nc(-c2ccnc3[nH]ccc23)n1 (stereo not drawn) + Cc1[nH]c2ccc(F)cc2c1-c1nc2c3cccnc3c3ncccc3c2[nH]1	52%

State its viability, T/C on 422866-222-R5-J1-PDC spheroids with HUVEC/MSC, viability: COc1ncnc(C2CC2)c1-c1ncc2cnn(Cc3ccc(-c4nc(C(F)(F)F)cn4C(C)C)cc3)c2n1 + Cc1cnc(CNC(=O)c2c(=O)c3ccc(N4CCCN(C)CC4)nc3n3c2sc2ccccc23)cn1
91.5%

====

tested on: 422866-222-R5-J1-PDC spheroids with HUVEC/MSC, viability; experiment: Anticancer human tumor 422866-222-R5-J1-PDC cell line growth inhibition [GQUAD]; conditions: second compound 0.316 µM; first compound 1 µM; stronger effect = lower value;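 note: spheroids exposed to compounds for seven days before reading; percent viability relative to DMSO vehicle control taken as 100%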
attributeMeasured: viability, T/C (%)
Give bare numbers, in %.

Solved cases below.
C=CCn1c(=O)c2cnc(Nc3ccc(N4CCN(C)CC4)cc3)nc2n1-c1cccc(C(C)(C)O)n1 + Cc1cnc(CNC(=O)c2c(=O)c3ccc(N4CCCN(C)CC4)nc3n3c2sc2ccccc23)cn1	52.4
CC1COCCN1c1cc(-c2ccnn2C)c2ccnc(-c3ccn[nH]3)c2n1 (stereo not given) + Cc1cnc(CNC(=O)c2c(=O)c3ccc(N4CCCN(C)CC4)nc3n3c2sc2ccccc23)cn1	40.5
C=CC(=O)N1CCN(c2nc(=O)n(-c3c(C)ccnc3C(C)C)c3nc(-c4c(O)cccc4F)c(F)cc23)C(C)C1 (stereo not given) + CN(C)c1ccc(Nc2c3ccc(NC(=O)CCN4CCCC4)cc3nc3cc(NC(=O)CCN4CCCC4)ccc23)cc1	25.7
CC(C)n1c(=O)n(C)c2cnc3cc(F)c(-c4ccc(OCCCN5CCCCC5)nc4)cc3c21 + Cc1cnc(CNC(=O)c2c(=O)c3ccc(N4CCCN(C)CC4)nc3n3c2sc2ccccc23)cn1	80.6

Proceeding to the next compound to report its viability, T/C.
Fill blank: measured viability, T/C of the compound Nc1ccn(C2OC(CO)C(O)C2(F)F)c(=O)n1 (stereo not given) + Cc1[nH]c2ccc(F)cc2c1-c1nc2c3cccnc3c3ncccc3c2[nH]1 is ____.
49.9
